FYI, the data here is from ChEMBL document CHEMBL1125569.

target: Serotonin 3 (5-HT3) receptor (Rattus norvegicus) (UniProt P35563+Q9JJ16); assay: Inhibition of 5-HT induced bradycardia [Benzold-Jarisch (BJ) reflex test] in rats at 5 min administered intravenously; assay type: functional
Response field label takes True when ED50 is strictly below 0.2 mg/kg and False in all other cases.

// below: answered molecules
molecule: CCCCn1c(=O)cc(C(=O)OC2CC3CCC(C2)N3C)c2ccccc21 (stereo unspecified)
assigned.label: True
--
molecule: CCn1c(=O)cc(C(=O)OC2CC3CCC(C2)N3C)c2ccccc21 (stereo unspecified)
assigned.label: True
--
molecule: CC(C)Cn1c(=O)cc(C(=O)OC2CC3CCC(C2)N3C)c2ccccc21 (stereo unspecified)
assigned.label: True
--
molecule: CC(C)COc1cc(C(=O)OC2CC3CCC(C2)N3C)c2ccccc2n1 (stereo unspecified)
assigned.label: False
--
molecule: COc1cc(C(=O)OC2CC3CCC(C2)N3C)c2ccccc2n1 (stereo unspecified)
assigned.label: False

Inquiry: # check: ED50 < 0.2 mg/kg for CC(C)Oc1cc(C(=O)OC2CC3CCC(C2)N3C)c2ccccc2n1 (stereo unspecified)
Reply text: False

Inquiry: Is ED50 strictly under 0.2 mg/kg for the entry CCCn1c(=O)cc(C(=O)OC2CC3CCC(C2)N3C)c2ccccc21 (stereo unspecified) ?
Reply text: False

Inquiry: Consider CCCCCn1c(=O)cc(C(=O)OC2CC3CCC(C2)N3C)c2ccccc21 (stereo unspecified) . Does its ED50 lie strictly below 0.2 mg/kg?
Reply text: True

Inquiry: Hi there! Is ED50 for CCCCCOc1cc(C(=O)OC2CC3CCC(C2)N3C)c2ccccc2n1 (stereo unspecified) below 0.2 mg/kg, do you know?
Reply text: False

Inquiry: ED50 strictly < 0.2 mg/kg for this molecule? CN1C2CCC1CC(OC(=O)c1cc(=O)n(C)c3ccccc13)C2 (stereo unspecified)
Reply text: True
